assay-explanation: Toxicity (weight loss and deaths) in mice after daily i.p. dosing for four days
Assay type: in vivo
setup-conditions: mouse, in vivo, ip; daily dose 20 mg/kg i.p., four consecutive days; deaths per 5 mice, observed for up to 12 days; read-out: Morality (After treatment) (converted)
experimental-readout: mortality at 288 h (%)
One number for each entry, in %.

Form: molecule = NCCC(N)C(F)F (stereo not shown) ; mortality at 288 h = 100

###

assay-explanation: Toxicity (weight loss and deaths) in mice after daily i.p. dosing for four days
Assay type: in vivo
setup-conditions: mouse, in vivo, ip; daily dose 10 mg/kg i.p., four consecutive days; deaths per 5 mice, observed for up to 12 days; read-out: Morality (After treatment) (converted)
experimental-readout: mortality at 288 h (%)
Answers are plain numbers, in %.

Form: compound = NCCC(N)C(F)F (stereo not shown) [DFDB, 1,1-difluoro-2,4-diaminobutane] ; mortality at 288 h = 60

###

assay-explanation: Toxicity (weight loss and deaths) in mice after daily i.p. dosing for four days
Type: in vivo
setup-conditions: mouse, in vivo, ip; daily dose 50 mg/kg i.p., four consecutive days; deaths per 5 mice, observed for up to 12 days; read-out: Morality (After treatment) (converted)
experimental-readout: mortality at 288 h (%)
Numbers only, in %.

Form: compound = NCCC(N)CF (stereo not shown) ; mortality at 288 h = 60

###

assay-explanation: Toxicity (weight loss and deaths) in mice after daily i.p. dosing for four days
Assay type: in vivo
setup-conditions: mouse, in vivo, ip; daily dose 25 mg/kg i.p., four consecutive days; deaths per 5 mice, observed for up to 12 days; read-out: Morality (After treatment) (converted)
experimental-readout: mortality at 288 h (%)
Numbers only, in %.

Form: molecule = NCCC(N)CF (stereo not shown) ; mortality at 288 h = 40
